Hi there, I'd appreciate the recorded Ki for every entry that follows.
Target protein (sequence): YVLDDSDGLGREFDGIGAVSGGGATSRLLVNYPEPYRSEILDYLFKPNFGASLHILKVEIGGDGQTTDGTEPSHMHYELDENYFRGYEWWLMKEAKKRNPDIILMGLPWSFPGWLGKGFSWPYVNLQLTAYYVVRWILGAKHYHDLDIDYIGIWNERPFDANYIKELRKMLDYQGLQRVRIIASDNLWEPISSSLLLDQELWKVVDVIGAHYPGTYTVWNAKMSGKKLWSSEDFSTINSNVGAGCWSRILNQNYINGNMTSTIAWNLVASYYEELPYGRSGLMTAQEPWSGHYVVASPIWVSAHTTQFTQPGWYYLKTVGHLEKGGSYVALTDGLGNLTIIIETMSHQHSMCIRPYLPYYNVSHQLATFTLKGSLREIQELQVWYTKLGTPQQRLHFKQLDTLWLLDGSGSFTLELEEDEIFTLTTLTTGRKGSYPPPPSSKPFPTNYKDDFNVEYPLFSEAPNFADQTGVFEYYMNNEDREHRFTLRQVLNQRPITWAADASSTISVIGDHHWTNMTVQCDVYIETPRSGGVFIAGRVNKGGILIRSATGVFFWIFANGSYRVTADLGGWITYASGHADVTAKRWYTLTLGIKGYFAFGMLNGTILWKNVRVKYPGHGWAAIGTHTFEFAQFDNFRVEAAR
Your reply should be a number followed by the unit it is expressed in.

Molecule: OC[C@H]1NNC[C@@H](O)[C@H]1O [AGF, aza-galacto-fagomine]
Ki: 0.63 µM
//
Molecule: OC[C@H]1OC(O)[C@H](O)[C@@H](O)[C@H]1O (mixture of isomers) [galactose, reference compound]
Ki: 7200 µM
//
Molecule: OC[C@H]1NC[C@@H](O)[C@H]1O [DIL]
Ki: 130 µM

Now examine the next entry.
Exercise: I am curious: what Ki value has been reported for OC[C@H]1CNC[C@@H](O)[C@H]1O [IGF, iso-galacto-fagomine] ?
Key: 0.38 µM
